# PROTOCOL: Permeability of the compound by PAMPA
# Format: physicochemical
# SETUP CONDITIONS: read-out: permeability
QUANTITY MEASURED: Papp

* CC(=O)N1CCC(c2nc(NC(C)C)ncc2-c2cc(C)no2)CC1 | > 10 ×10⁻⁶ cm/s
* CC(=O)N1CCC(c2nc(N3CCOCC3)ncc2-c2cc(C)no2)CC1 | > 10 ×10⁻⁶ cm/s
* CC(=O)N1CCC(c2nc(NCc3ccc(F)cc3)ncc2-c2cc(C)no2)CC1 | > 10 ×10⁻⁶ cm/s

----------
# PROTOCOL: Permeability of the compound by PAMPA
# Format: physicochemical
# SETUP CONDITIONS: read-out: permeability
Entries and their Papp
QUANTITY MEASURED: Papp

• Cc1cc(-c2cnc(N3CCN(C)CC3)nc2-c2ccc(C)s2)on1 = > 10 ×10⁻⁶ cm/s
• CC(=O)N1CCC(c2nc(N3CCCC3)ncc2-c2cc(C)no2)CC1 = > 10 ×10⁻⁶ cm/s
• COCCNc1ncc(-c2cc(C)no2)c(-c2ccc(C)s2)n1 = > 10 ×10⁻⁶ cm/s
